Values from PubChem BioAssay AID2177

molecular target: Acyl-protein thioesterase 2 (Homo sapiens) (UniProt O95372); assay: LYPLA2 inhibitors, primary screen, counter-screen for PME1 inhibitor project, biochemical, fluorescence polarization, FP-Rh probe ABPP (AID 2177); conditions: recombinant LYPLA2, FP-Rh probe fluorescence polarization; at 5.9 µM; hits give high values;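 further: 0% = LYPLA2 with DMSO and 100% = wells lacking LYPLA2 enzyme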
Sequence (O95372 whole entry, looked up): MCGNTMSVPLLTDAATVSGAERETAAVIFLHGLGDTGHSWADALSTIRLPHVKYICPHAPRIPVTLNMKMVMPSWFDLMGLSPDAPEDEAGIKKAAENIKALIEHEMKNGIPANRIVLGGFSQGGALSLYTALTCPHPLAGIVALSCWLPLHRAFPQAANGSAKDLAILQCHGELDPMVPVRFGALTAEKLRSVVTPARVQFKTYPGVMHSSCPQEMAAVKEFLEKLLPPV
About 1,200 (0.38%) of roughly 320,000 compounds were called active. This is one part of a sample in which actives are shown more often than they occur.
Listed below: inhibition values for each entry.

compound	inhibition / %
CC(C)NC(=O)CSc1nnc(COc2ccccc2Cl)o1	1.63
CCOC(=O)c1cc(=O)c2ccc(OCc3ccccc3)cc2o1	-1.62
COc1ccccc1N1CC(C(=O)NCCN2C(=O)S/C(=C\c3cccnc3)C2=O)CC1=O (stereo unspecified)	1.85
O=C1OCC2=C1C(c1ccccc1)CC(=O)N2c1cccc(F)c1 (stereo unspecified)	0.97
COC(=O)c1c(NC(=O)COc2ccc(Cl)cc2Cl)sc2c1CC(C)(C)NC2(C)C	1.16
C[C@H](OC(=O)n1ccnc1)[C@@H]1O[C@@]2(C)CCC[C@@H]1O2	3.91
COc1ccc(CN(C)C(=O)Cc2ccsc2)c(OC)c1OC	4.71
COc1ccccc1NC(=O)CSc1nnc(CNC(=O)c2ccccc2F)o1	-2.81
COc1ccc(C2=NOC3(CC(=O)N(c4ccc(Cl)cc4)C3=O)C2)c(OC)c1 (stereo unspecified)	7.09
COc1cc(C(=O)NCc2ccc3c(c2)cc(C)n3C)cc(OC)c1OC	6.1
COc1ccc(NC(=O)NCCN2CCN(c3ccc(C)cc3)CC2)c(Cl)c1	-3.78
CCOc1ccc(N2CC(C(=O)NCCN3C(=O)S/C(=C\c4cccnc4)C3=O)CC2=O)cc1 (stereo unspecified)	6.19
Nc1nc(SCC(=O)Nc2ccc(Cl)cc2C(F)(F)F)n[nH]1	9.87
CCOC(=O)c1cc2cc(-c3c(C(=O)OCC)oc4cc(O)cc(O)c4c3=O)ccc2o1	33.9
Cc1ccccc1NC(=O)Cc1nc(COC(=O)c2cccnc2Cl)cs1	2.11
O=C(CN1CCN(C(=O)c2ccco2)CC1)Nc1ccc2c(c1)OCO2	-2.14
O=C(c1ccco1)N1CCN(C(=S)Nc2cc(F)cc(F)c2)CC1	33.1
CCOc1ccc(NC(=O)CN(C)C(=O)CCSc2ccc(F)cc2)cc1OCC	6.29
COc1ccc(N2CC(C(=O)NCCN3C(=O)S/C(=C\c4cccnc4)C3=O)CC2=O)c(OC)c1 (stereo unspecified)	57.6
CCNC(=S)N1CCN(C(=O)c2ccco2)CC1	2.65
CCCCCc1c(C)nc(N2CCN(Cc3ccc4c(c3)OCO4)CC2)[nH]c1=O	-5.68

----------
biological target: Acyl-protein thioesterase 2 (Homo sapiens) (UniProt O95372); assay: LYPLA2 inhibitors, primary screen, counter-screen for PME1 inhibitor project, biochemical, fluorescence polarization, FP-Rh probe ABPP (AID 2177); conditions: recombinant LYPLA2, FP-Rh probe fluorescence polarization; at 5.9 µM; hits give high values;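 further: 0% = LYPLA2 with DMSO and 100% = wells lacking LYPLA2 enzyme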
Among all 320,000 compounds or so, about 1,200 (0.38%) were called active. What follows is part of a selection rich in actives, with near analogues and random picks from the rest.

cpd-smiles	inhibition / %
CSc1cccc(NC(=O)CN2C(=O)COc3ccc(S(=O)(=O)N4CCOCC4)cc32)c1	35.7
COc1ccc(NC(=O)CN2C(=O)COc3ccc(S(=O)(=O)N4CCOCC4)cc32)cc1	7
CCOC(=O)CSc1nnc(-c2ccc([N+](=O)[O-])cc2)o1	-0.42
CC(=O)Nc1ccc(NC(=O)CN2C(=O)COc3ccc(S(=O)(=O)N4CCCCC4)cc32)cc1	-8.84
N#Cc1ccc(OCc2nnc(-c3ccc([N+](=O)[O-])cc3)o2)cc1	32.3

----------
Listed below: inhibition values for each entry.
molecular target: Acyl-protein thioesterase 2 (Homo sapiens) (UniProt O95372); assay: LYPLA2 inhibitors, primary screen, counter-screen for PME1 inhibitor project, biochemical, fluorescence polarization, FP-Rh probe ABPP (AID 2177); settings: recombinant LYPLA2, FP-Rh probe fluorescence polarization; at 5.9 µM; hits give high values;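 further: 0% = LYPLA2 with DMSO and 100% = wells lacking LYPLA2 enzyme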
Screen size: about 320,000 compounds; about 1,200 (0.38%) were called active. The sample holds actives, similar compounds and a random draw of the others, so the mix is not that of the screen.
measured-endpoint: inhibition

compound	study-target	measured-endpoint	observed-measurement
CCCn1c(NC(=O)C23CC4CC(CC(O)(C4)C2)C3)nc2ccccc21	Acyl-protein thioesterase 2 (Homo sapiens) (UniProt O95372)	inhibition	-2.06% (inactive)
CC[N+](C)(CC)CCC[n+]1c(-c2ccccc2)c2cc(N)ccc2c2ccc(N)cc21	Acyl-protein thioesterase 2 (Homo sapiens) (UniProt O95372)	inhibition	72.4% (active)
O=C(CNc1ccc(F)cc1F)NC(=O)NCc1ccco1	Acyl-protein thioesterase 2 (Homo sapiens) (UniProt O95372)	inhibition	-3.47% (inactive)
CC(=O)NC12CC3CC(C1)CC(C(=O)N1CCN(C(=O)c4ccco4)CC1)(C3)C2	Acyl-protein thioesterase 2 (Homo sapiens) (UniProt O95372)	inhibition	6.61% (inactive)
O=C(C(c1ccccc1)c1ccccc1)N1CCN(CC(O)COc2ccccc2)CC1 (stereo not drawn)	Acyl-protein thioesterase 2 (Homo sapiens) (UniProt O95372)	inhibition	1.24% (inactive)
O=[N+]([O-])c1ccc(N2CCN(CC(O)COc3ccccc3)CC2)cc1 (stereo not drawn)	Acyl-protein thioesterase 2 (Homo sapiens) (UniProt O95372)	inhibition	29.5% (active)
COC(=O)/C(=C1\Oc2ccc(C(C)(C)C)cc2S1)C(F)(F)F	Acyl-protein thioesterase 2 (Homo sapiens) (UniProt O95372)	inhibition	-3.77% (inactive)
Cc1ccccc1N1CCN(CCCOc2ccc3c(C)cc(=O)oc3c2)CC1	Acyl-protein thioesterase 2 (Homo sapiens) (UniProt O95372)	inhibition	15.9% (inactive)
O=C(COc1ccccc1)Nc1ccc(N2CCN(C(=O)c3cccs3)CC2)cc1	Acyl-protein thioesterase 2 (Homo sapiens) (UniProt O95372)	inhibition	7.89% (inactive)
COc1ccc(N2CCN(C(=O)c3ccc4c(Cl)c5c(nc4c3)CCCC5)CC2)cc1	Acyl-protein thioesterase 2 (Homo sapiens) (UniProt O95372)	inhibition	7.7% (inactive)
COc1ccc(CCNc2nc(-c3cccc(NC(C)=O)c3)cs2)cc1OC	Acyl-protein thioesterase 2 (Homo sapiens) (UniProt O95372)	inhibition	31.9% (active)
COc1ccc(N2CCN(C(=O)c3ccc(N4CCCCS4(=O)=O)cc3)CC2)cc1	Acyl-protein thioesterase 2 (Homo sapiens) (UniProt O95372)	inhibition	63% (active)
COc1ccc(CC(=O)Nc2nc(-c3ccc(F)c(F)c3)cs2)cc1OC	Acyl-protein thioesterase 2 (Homo sapiens) (UniProt O95372)	inhibition	-13.7% (inactive)
COc1ccccc1CNC(=O)C1CCN(S(=O)(=O)c2ccc3c(c2)CC(C)N3C(=O)C2CC2)CC1 (stereo not drawn)	Acyl-protein thioesterase 2 (Homo sapiens) (UniProt O95372)	inhibition	14.5% (inactive)
C[N+]1(CC(O)COc2ccccc2)CCN(C(=O)c2ccc([N+](=O)[O-])cc2)CC1 (stereo not drawn)	Acyl-protein thioesterase 2 (Homo sapiens) (UniProt O95372)	inhibition	-1.46% (inactive)
Oc1ccc(N=Cc2c(O)ccc3ccccc23)cc1	Acyl-protein thioesterase 2 (Homo sapiens) (UniProt O95372)	inhibition	32.3% (active)
CC(=O)Nc1cccc(-c2csc(Nc3cccc(C)n3)n2)c1	Acyl-protein thioesterase 2 (Homo sapiens) (UniProt O95372)	inhibition	2.92% (inactive)
Cc1ccc(N2CCN(c3ccc(C)cc3)C2c2ccccn2)cc1	Acyl-protein thioesterase 2 (Homo sapiens) (UniProt O95372)	inhibition	3.84% (inactive)
O=S(=O)(/N=C(/Nc1ccccc1)c1ccccc1)c1cccs1	Acyl-protein thioesterase 2 (Homo sapiens) (UniProt O95372)	inhibition	1.19% (inactive)
CC(=O)N1c2ccc(S(=O)(=O)N3CCC(C(=O)N4CCN(c5ccccc5)CC4)CC3)cc2CC1C (stereo not drawn)	Acyl-protein thioesterase 2 (Homo sapiens) (UniProt O95372)	inhibition	58% (active)
O=C(Nc1ccccc1N1CCOCC1)c1ccncc1	Acyl-protein thioesterase 2 (Homo sapiens) (UniProt O95372)	inhibition	-4.72% (inactive)
CCN(CC)CCNC(=O)Cn1cnc2sc(C)c(S(=O)(=O)N3CCOCC3)c2c1=O	Acyl-protein thioesterase 2 (Homo sapiens) (UniProt O95372)	inhibition	-2.7% (inactive)
CC(=O)N1c2ccc(S(=O)(=O)N3CCC(C(=O)NC4CCCCC4C)CC3)cc2CC1C (stereo not drawn)	Acyl-protein thioesterase 2 (Homo sapiens) (UniProt O95372)	inhibition	-1.87% (inactive)
Cc1ccc(/C=C/C(=O)OCC(=O)Nc2cccnc2Cl)cc1	Acyl-protein thioesterase 2 (Homo sapiens) (UniProt O95372)	inhibition	7.22% (inactive)
NS(=O)(=O)c1ccc(N=Nc2c(O)[nH]c3ccc(Br)cc23)cc1	Acyl-protein thioesterase 2 (Homo sapiens) (UniProt O95372)	inhibition	1.06% (inactive)
O=C(CCCC(=O)N1CCN(c2cccc(Cl)c2)CC1)c1ccccc1	Acyl-protein thioesterase 2 (Homo sapiens) (UniProt O95372)	inhibition	24.1% (inactive)
CC(C)CNC(=O)C(=O)NCC(c1ccc2c(c1)OCO2)N1CCOCC1 (stereo not drawn)	Acyl-protein thioesterase 2 (Homo sapiens) (UniProt O95372)	inhibition	6.19% (inactive)
Cc1ccccc1C(=O)N1CCN(c2ccc(NC(=O)c3cccs3)cc2)CC1	Acyl-protein thioesterase 2 (Homo sapiens) (UniProt O95372)	inhibition	2.59% (inactive)
Cc1ccccc1OCC(O)CN1CCN(c2ccccn2)CC1 (stereo not drawn)	Acyl-protein thioesterase 2 (Homo sapiens) (UniProt O95372)	inhibition	-3.92% (inactive)
COc1ccccc1C(=O)NC(CCSC)C(=O)N1CCN(C(C)=O)CC1 (stereo not drawn)	Acyl-protein thioesterase 2 (Homo sapiens) (UniProt O95372)	inhibition	-2.46% (inactive)
COc1ccc(-c2nc(CS(=O)CC(=O)NCc3ccccc3)c(C)o2)cc1OC (stereo not drawn)	Acyl-protein thioesterase 2 (Homo sapiens) (UniProt O95372)	inhibition	0.93% (inactive)
CC(C(=O)Nc1ccc(O)c(C(=O)O)c1)N1C(=O)/C(=C/c2cccs2)SC1=S (stereo not drawn)	Acyl-protein thioesterase 2 (Homo sapiens) (UniProt O95372)	inhibition	2.96% (inactive)
COc1ccc(/C=C/C(=O)Nc2c(C)nn(C)c2C)cc1COc1ccc(Br)cc1	Acyl-protein thioesterase 2 (Homo sapiens) (UniProt O95372)	inhibition	-4.58% (inactive)
Cc1cccc(C)c1OCC(O)CN1CCCCC1 (stereo not drawn)	Acyl-protein thioesterase 2 (Homo sapiens) (UniProt O95372)	inhibition	-4.51% (inactive)
COc1ccc([N+](=O)[O-])cc1C1NN=C(c2cccc3ccccc23)S1 (stereo not drawn)	Acyl-protein thioesterase 2 (Homo sapiens) (UniProt O95372)	inhibition	7.57% (inactive)
COc1ccccc1C(=O)NC(CCSC)C(=O)N1CCN(C/C=C/c2ccccc2)CC1 (stereo not drawn)	Acyl-protein thioesterase 2 (Homo sapiens) (UniProt O95372)	inhibition	37.6% (active)
CC/C(Cc1ccccc1)=N/NC(=O)CCn1nnc2ccccc21	Acyl-protein thioesterase 2 (Homo sapiens) (UniProt O95372)	inhibition	9.11% (inactive)
O=S(=O)(Nc1ccc2[nH]ncc2c1)c1ccccc1Cl	Acyl-protein thioesterase 2 (Homo sapiens) (UniProt O95372)	inhibition	-3.28% (inactive)
COc1ccc(N2CCN(C(=O)c3cccs3)CC2)cc1	Acyl-protein thioesterase 2 (Homo sapiens) (UniProt O95372)	inhibition	8.83% (inactive)
O=C(c1cccs1)C1C(c2ccc(Br)cc2)NC(=S)NC1(O)C(F)(F)F (stereo not drawn)	Acyl-protein thioesterase 2 (Homo sapiens) (UniProt O95372)	inhibition	-1.56% (inactive)
COc1ccc(-c2nc(CS(=O)CC(=O)NCc3ccccn3)c(C)o2)cc1 (stereo not drawn)	Acyl-protein thioesterase 2 (Homo sapiens) (UniProt O95372)	inhibition	27.8% (active)
N#Cc1c(/N=C/N2CCCC2)oc(-c2ccccc2)c1-c1ccccc1	Acyl-protein thioesterase 2 (Homo sapiens) (UniProt O95372)	inhibition	4.8% (inactive)
CCN(CC)CCNC(=O)c1sc2ncn(CC(=O)Nc3ccc(C)c(Cl)c3)c(=O)c2c1C	Acyl-protein thioesterase 2 (Homo sapiens) (UniProt O95372)	inhibition	32.4% (active)
